All values here come from PubChem BioAssay AID248.

# T/C annotations
System: L1210 leukemia ip in BDF1 mice, survival T/C
Assay: NCI In Vivo Anticancer Drug Screen. Data for tumor model L1210 Leukemia (intraperitoneal) in B6D2F1 (BDF1) mice
Conditions: endpoint: mean survival time; dose: 400.0 mg/kg/injection; schedule: Q01DX001 (ip); vehicle: carboxymethylcellulose (CMC); higher = longer survival
Inconclusive results and toxic doses are left out.

Worked cases, T/C given:
compound=CC(C)(C)c1ccccc1OC(=O)Nc1ccc(F)cc1 endpoint_label=T/C observed_measurement="101 % of control"
compound=C/C=C/c1ccc2ccccc2c1 endpoint_label=T/C observed_measurement="104 % of control"
compound="O=C(OCC(O)C(O)C(O)C(COC(=O)c1ccccc1)OC(=O)c1ccccc1)c1ccccc1 (configuration not stated)" endpoint_label=T/C observed_measurement="93 % of control"
compound=CCOC(=O)Cn1c(=O)cc(C=O)c2ccccc21 endpoint_label=T/C observed_measurement="89 % of control"

query: What value of measured T/C is listed for `COc1cccc(/C=C(\S)C(=O)O)c1O` ?
result: 89 % of control

query: Record request: T/C value, item `Cc1cccc(C(=O)O)[n+]1[O-]`
result: 100 % of control

query: What does the record list as T/C for `CN(N=O)c1ccc(C=C2c3ccccc3-c3ccccc32)cc1` ?
result: 102 % of control

query: Which T/C is reported for this compound? `O=C1c2ccccc2-c2ccc(N=C(NO)C(F)(F)F)cc21`
result: 98 % of control

query: Which T/C is listed for `COc1c(OC)c(OC)c2c(c1OC)c(=O)c1ccccc1n2C` ?
result: 98 % of control

query: Given the entry `NC(=S)N/N=C/c1cc(Br)ccc1O` , report its measured T/C.
result: 105 % of control

query: Form field: reported T/C of `COc1ccc(O)c(C(=O)c2cccc(OC)c2C#N)c1`
result: 99 % of control

query: For the compound shown here, CN1CCCCCCCC(=O)C(OC(=O)c2ccc([N+](=O)[O-])cc2)CCCCCCC1 (configuration not stated) , give the reported T/C.
result: 95 % of control

* * *

Test system: L1210 leukemia ip in BDF1 mice, survival T/C
Test: NCI In Vivo Anticancer Drug Screen. Data for tumor model L1210 Leukemia (intraperitoneal) in B6D2F1 (BDF1) mice
Details: endpoint: mean survival time; dose: 25.0 mg/kg/injection; schedule: Q01DX009 (ip); vehicle: saline with Tween-80; higher = longer survival
Toxic doses and inconclusive results are not listed.
T/C: recorded values

Would you please look over these solved cases?
compound="CCOC(=O)C1(C(C)C)OC2(O)C3CCCN3CC(C(C)C)N2C1=O (stereo unspecified)" target_under_test="L1210 leukemia ip in BDF1 mice, survival T/C" endpoint_label=T/C observed_measurement="100 % of control"
compound=C=C(C)CN=C=S target_under_test="L1210 leukemia ip in BDF1 mice, survival T/C" endpoint_label=T/C observed_measurement="100 % of control"
compound=O=C(O)c1cc(CBr)ccc1CBr target_under_test="L1210 leukemia ip in BDF1 mice, survival T/C" endpoint_label=T/C observed_measurement="95 % of control"
compound=Cc1ccc(NC(N)=S)cc1C target_under_test="L1210 leukemia ip in BDF1 mice, survival T/C" endpoint_label=T/C observed_measurement="105 % of control"
compound=CC1(C)CN(Cc2ccccc2)C(C)(C)CN1N target_under_test="L1210 leukemia ip in BDF1 mice, survival T/C" endpoint_label=T/C observed_measurement="102 % of control"

query: Which value of T/C has been reported for `CCN(C(C)C)C(C)C` in the records?
result: 101 % of control

query: Entry `CCN(CC)c1ccc(N(C(C)=O)C(C)=O)cc1` has what T/C?
result: 96 % of control

query: Given `CN(C)c1ccc(/C=N\NC(=S)Nc2ccccc2)c(Cl)c1` , state its recorded T/C.
result: 91 % of control

query: Quick check: T/C of BrCC1CCCO1 (stereo unspecified) ?
result: 106 % of control

query: State the recorded T/C for this entry: `Cc1ccc2nc3c(nc2c1)-c1cccc2cccc-3c12`
result: 94 % of control

query: What value of measured T/C is listed for `COc1ccccc1OC(=O)CCl` ?
result: 90 % of control

* * *

Test system: L1210 leukemia ip in BDF1 mice, survival T/C
Assay: NCI In Vivo Anticancer Drug Screen. Data for tumor model L1210 Leukemia (intraperitoneal) in B6D2F1 (BDF1) mice
Settings: endpoint: mean survival time; dose: 400.0 mg/kg/injection; schedule: Q01DX009 (ip); vehicle: Klucel (hydroxypropylcellulose) (HPC); higher = longer survival
Inconclusive results and toxic doses are left out.
Endpoint label: T/C

molecule=O=[N+]([O-])c1ccc(N/N=C/c2ccnc3ccccc23)cc1 observed_measurement="91 % of control"

query: Look at this molecule and give its reported T/C. `[O-]/[N+](=C\C=C\c1ccccc1)c1ccccc1`
result: 89 % of control

query: Need T/C of `COc1ccccc1C=O` , thanks.
result: 106 % of control

query: What value of T/C has been reported for the following molecule? `CNC(=O)Oc1cc(OC)ccc1C(=O)c1ccccc1`
result: 97 % of control

query: Record request: T/C value, item O=C(Nc1ccccc1C(F)(F)F)N(CC(O)c1ccccc1)C1CCCCC1 (stereo unspecified)
result: 100 % of control

query: Looking for the measured T/C of `CCN(C(=O)COc1ccc(Cl)cc1)c1ccccc1C` , can you help?
result: 116 % of control

* * *

Parameter T/C: see the listing below.
Test system: L1210 leukemia ip in BDF1 mice, survival T/C
Assay: NCI In Vivo Anticancer Drug Screen. Data for tumor model L1210 Leukemia (intraperitoneal) in B6D2F1 (BDF1) mice
Settings: endpoint: mean survival time; dose: 25.0 mg/kg/injection; schedule: Q04DX003 (ip); vehicle: Klucel (hydroxypropylcellulose) (HPC); higher = longer survival
Inconclusive results and toxic doses are left out.

query: Form field: T/C recorded for `CCN(CC)S(=O)(=O)c1ccc(Nc2nc(Cl)nc(Cl)n2)cc1` with L1210 leukemia ip in BDF1 mice, survival T/C (enter value)
result: 100 % of control

query: Request - read-out T/C | tested on L1210 leukemia ip in BDF1 mice, survival T/C | compound `CC1(C)N=C(N)N=C(N)N1c1ccc(CCc2ccccc2)c(Cl)c1`
result: 93 % of control

query: Notebook entry, L1210 leukemia ip in BDF1 mice, survival T/C assay: T/C of CC(C)(C)C1CCC(NC(=O)C(Cl)(Cl)Cl)CC1 (configuration not stated) = ?
result: 94 % of control

query: I'm curious: which T/C was measured for CCSCC1OC(n2cnc3c(N)nc(F)nc32)C(O)C1O (configuration not stated) tested on L1210 leukemia ip in BDF1 mice, survival T/C?
result: 97 % of control

query: Hi! What's the reported T/C for C=CCOCC(O)CN1CCC(C)CC1 (configuration not stated) on L1210 leukemia ip in BDF1 mice, survival T/C?
result: 97 % of control

query: Which measured T/C belongs to `O=C(Nc1ccc2cc(S(=O)(=O)O)ccc2c1)c1ccc(N=Nc2c(S(=O)(=O)O)cc3cc(S(=O)(=O)O)cc(NC(=O)c4ccccc4)c3c2O)cc1` , tested on L1210 leukemia ip in BDF1 mice, survival T/C?
result: 95 % of control

query: Value wanted: T/C (L1210 leukemia ip in BDF1 mice, survival T/C) of entry `S=C(S)Nc1cccc2ccccc12`
result: 94 % of control

* * *

Test system: L1210 leukemia ip in BDF1 mice, survival T/C
Assay: NCI In Vivo Anticancer Drug Screen. Data for tumor model L1210 Leukemia (intraperitoneal) in B6D2F1 (BDF1) mice
Settings: endpoint: mean survival time; dose: 400.0 mg/kg/injection; schedule: Q01DX001 (ip); vehicle: saline; higher = longer survival
Inconclusive results and toxic doses are left out.
Measured T/C by item

// solved cases for T/C follow
molecule=COC(=O)c1sccc1C=O target_under_test="L1210 leukemia ip in BDF1 mice, survival T/C" observed_measurement="97 % of control"
molecule="OCC1OC(c2ccccc2)OC1C1OC(c2ccccc2)OC1CO (stereo not drawn)" target_under_test="L1210 leukemia ip in BDF1 mice, survival T/C" observed_measurement="98 % of control"
molecule=O=CNc1ncn[nH]1 target_under_test="L1210 leukemia ip in BDF1 mice, survival T/C" observed_measurement="104 % of control"
molecule=Cc1nc(N)[nH]c(=O)c1CCCNS(=O)(=O)c1ccc(N)cc1 target_under_test="L1210 leukemia ip in BDF1 mice, survival T/C" observed_measurement="94 % of control"
molecule=Cc1nnc(C)n1N target_under_test="L1210 leukemia ip in BDF1 mice, survival T/C" observed_measurement="95 % of control"

query: I would be grateful if you could share the reported T/C for O=C(C(=Nc1ccc(Br)cc1)C(Nc1ccc(Br)cc1)C(=O)c1ccccc1)c1ccccc1 (stereo not drawn) .
result: 94 % of control

query: What does the record list as T/C for OCC1OC(n2cnc3c(SCc4ccccn4)ncnc32)C(O)C1O (stereo not drawn) ?
result: 115 % of control

query: # get_value(readout='T/C', item= CCC(N)C(=O)O (stereo not drawn) )
result: 94 % of control

query: I'd like to know its T/C. The molecule in question is CCC#CC(O)(C(=O)OCC)C1CCCC1 (stereo not drawn)
result: 111 % of control

query: Given the entry `OCC(F)(F)F` , report its measured T/C.
result: 108 % of control
